Biological target: RAS G12D (Homo sapiens, UniProt P01116, G12D)
Construct: host or cells: AsPC-1 human pancreatic cancer cells
Sequence (P01116 1-188 isoform P01116-2 G12D): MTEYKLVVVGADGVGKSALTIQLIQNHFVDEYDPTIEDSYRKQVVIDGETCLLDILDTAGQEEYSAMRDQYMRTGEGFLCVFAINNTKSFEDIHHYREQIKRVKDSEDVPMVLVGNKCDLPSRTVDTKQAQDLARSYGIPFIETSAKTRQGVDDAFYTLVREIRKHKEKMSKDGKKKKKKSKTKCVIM
Assay: RAS G12D degradation activity, Cell ELISA, AsPC-1
Format: cell-based
Conditions: AsPC-1 cells, 24 hours; read-out: DC50 (RAS G12D 50% degradation value)
Method: Test Example 1-2: Evaluation of RAS G12D Degradation Activity on Human KRAS G12D Mutant-Positive Pancreatic Cancer Line AsPC-1 The RAS G12D degradation activities of subject compounds were evaluated in the same manner as in Test Example 1-1 by measuring the expression levels of RAS G12D by a Cell ELISA method. AsPC-1 cells (ATCC, CRL-1682) were seeded at 36 μL per well on a 384-well plate to give 2.0×10^4 cells per well. […]
quantity_name: DC50 (nM)
Numbers only, in nM.

Below, each entry is followed by its recorded DC50 result.
compound | quantity_name | result
COC(C)(C)COc1cc(OC2CN(C(=O)N3CC(CN(C)C)C3)C2)c2cc(C3CC3)c(-c3c(C)c(F)cc4[nH]ncc34)c(OCc3ccc(-c4cn([C@H](C(=O)N5C[C@H](O)C[C@H]5C(=O)N[C@@H](CO)c5ccc(-n6cncn6)cc5)C(C)C)nn4)cc3)c2n1 (atropisomer, axis not shown) | DC50 | 5
CO[C@@H](C)COc1cc(OC2CN(C(=O)O[C@H]3C[C@@H](N(C)C)C3)C2)c2cc(C3CC3)c(-c3c(C)c(F)cc4[nH]ncc34)c(OCc3ccc(-c4cn([C@H](C(=O)N5C[C@H](O)C[C@H]5C(=O)N[C@@H](CO)c5ccc(-n6cncn6)cc5)C(C)C)nn4)cc3)c2n1 (atropisomer, axis not shown; (M)) | DC50 | 6
CO[C@@H](C)COc1nc(N[C@H]2C[C@H](OCCN(C)C)C2)c2cc(C3CC3)c(-c3c(C)c(F)cc4[nH]ncc34)c(OCc3ccc(-c4cn([C@H](C(=O)N5C[C@H](O)C[C@H]5C(=O)N[C@@H](CO)c5ccc(-c6scnc6C)cc5)C(C)C)nn4)cc3)c2n1 (atropisomer, axis not shown) | DC50 | 1

Quick batch: DC50 for everything below.
1. CO[C@@H](C)COc1nc(NC2CN(C(=O)N3CC(CN(C)C)C3)C2)c2cc(C3CC3)c(-c3c(C)c(F)cc4[nH]ncc34)c(OCc3ccc(-c4cn([C@H](C(=O)N5C[C@H](O)C[C@H]5C(=O)N[C@@H](CO)c5ccc(-c6scnc6C)cc5)C(C)C)nn4)cc3)c2n1 (atropisomer, axis not shown)
2. CO[C@@H](C)COc1nc(NC2CN(C(=O)O[C@H]3C[C@@H](N(C)C)C3)C2)c2cc(C3CC3)c(-c3c(C)c(F)cc4[nH]ncc34)c(OCc3ccc(-c4cn([C@H](C(=O)N5C[C@H](O)C[C@H]5C(=O)N[C@@H](CO)c5ccc(-n6cncn6)cc5)C(C)C)nn4)cc3)c2n1 (atropisomer, axis not shown; (M))
3. CO[C@@H](C)COc1cc(OC2CN(C(=O)C3CN(C)C3)C2)c2cc(C3CC3)c(-c3c(C)c(F)cc4[nH]ncc34)c(OCc3ccc(-c4cn([C@H](C(=O)N5C[C@H](O)C[C@H]5C(=O)N[C@@H](CO)c5ccc(-n6cncn6)cc5)C(C)C)nn4)cc3)c2n1 (atropisomer, axis not shown)
4. CO[C@@H](C)COc1nc(N(C)[C@H]2CCN(C(=O)NCCN(C)C)C2)c2cc(C3CC3)c(-c3c(C)c(F)cc4[nH]ncc34)c(OCc3ccc(-c4cn([C@H](C(=O)N5C[C@H](O)C[C@H]5C(=O)N[C@@H](CO)c5ccc(-c6scnc6C)cc5)C(C)C)nn4)cc3)c2n1 (atropisomer, axis not shown)
5. CO[C@@H](C)COc1nc(NC2CN(C(=S)N3CC(CN(C)C)C3)C2)c2cc(C3CC3)c(-c3c(C)c(F)cc4[nH]ncc34)c(OCc3ccc(-c4cn([C@H](C(=O)N5C[C@H](O)C[C@H]5C(=O)N[C@@H](CO)c5ccc(-n6cncn6)cc5)C(C)C)nn4)cc3)c2n1 (atropisomer, axis not shown)

output:
3
5
6
4
6
